Target: fMet-Leu-Phe receptor (Homo sapiens, UniProt P21462)
Sequence (P21462 whole entry): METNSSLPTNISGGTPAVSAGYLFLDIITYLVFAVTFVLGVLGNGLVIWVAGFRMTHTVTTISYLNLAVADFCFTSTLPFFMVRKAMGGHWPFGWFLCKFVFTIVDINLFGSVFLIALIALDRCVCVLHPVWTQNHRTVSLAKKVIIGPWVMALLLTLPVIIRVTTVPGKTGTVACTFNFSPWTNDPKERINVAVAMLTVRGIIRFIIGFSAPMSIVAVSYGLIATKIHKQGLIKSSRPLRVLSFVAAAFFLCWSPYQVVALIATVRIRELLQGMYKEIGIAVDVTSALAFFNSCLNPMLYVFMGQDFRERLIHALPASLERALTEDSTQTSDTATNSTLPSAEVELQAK
Assay: Agonist activity at human FPR1 expressed in CHO cells assessed as cAMP level incubated for 1.5 hr by HTRF assay
pEC50: −log10 of the molar value.
assay-endpoint: pEC50

(Q) Need pEC50 of O=C(Nc1ccc(Cl)cc1F)N[C@@H]1CCN(c2ccc(-c3cnn(C(F)F)c3)c(F)c2F)C1=O [US10676431, Example 79] , thanks.
(A) < 5.00

(Q) One more molecule: CP(C)(=O)c1ccccc1-c1ccc(N2CC(CO)[C@@H](NC(=O)Nc3ccc(Cl)cc3F)C2=O)c(F)c1F (some centres not stated) [US10676431, Example 125]
(A) < 5.00
